Quick reference for activity at 10 µM among some compounds
target.or.system: complete β-kinase domain of the human insulin receptor (CKD) (Homo sapiens, UniProt P06213)
Construct: The complete β-kinase domain of the human insulin receptor (CKD); made in house
Sequence (P06213 1023-1298 limits assumed): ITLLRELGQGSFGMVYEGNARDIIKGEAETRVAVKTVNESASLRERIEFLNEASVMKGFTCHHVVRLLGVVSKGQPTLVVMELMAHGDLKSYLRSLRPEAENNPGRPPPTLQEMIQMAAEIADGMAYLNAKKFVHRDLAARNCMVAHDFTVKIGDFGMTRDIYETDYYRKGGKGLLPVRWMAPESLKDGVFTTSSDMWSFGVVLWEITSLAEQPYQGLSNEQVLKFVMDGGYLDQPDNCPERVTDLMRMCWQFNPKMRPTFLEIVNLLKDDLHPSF
measurement.notes: 32P-CKD autophosphorylation assay
Type: biochemical
reported.conditions: 10 min; compound at 10 μM; phosphorylation of CKD expressed as % of the vehicle level; read-out: Activity (% vs. control)
Unit % implied. Number only.

# annotated cases, reported activity at 10 µM shown
COC(=O)c1ccc(N(C(C)=O)c2ccc(C(=O)Nc3ccc(/C=C/c4cccc(CC(=O)O)c4)cc3)cc2)cc1; 91
COC(=O)c1ccc(C(=O)N(C)c2ccc(C(=O)Nc3ccc(/C=C/c4ccc(F)cc4)cc3C(=O)OC)cc2)cc1; 88
COC(=O)c1ccc(C(=O)N(C)c2ccc(C(=O)Nc3ccc(/C=C/c4cccc(F)c4)cc3C(=O)OC)cc2)cc1; 93
COc1ccc(C(=O)Nc2ccc(/C=C/c3ccccc3)cc2C(=O)O)cc1OC; 105
COC(=O)c1ccc(N(C(C)=O)c2ccc(C(=O)Nc3ccc(/C=C/c4ccccc4)c(C(=O)O)c3)cc2)cc1; 64

Entry COC(=O)c1cc(/C=C/c2ccccc2)ccc1NC(=O)c1ccc(OC)c(OC)c1 , activity at 10 µM reported as 54

Entry COc1ccc(/C=C/c2ccc(N(Cc3ccc(C(=O)O)cc3)C(=O)c3ccc(N(C(C)=O)c4ccc(C(=O)O)cc4)cc3)c(C(=O)O)c2)cc1 , activity at 10 µM reported as 107

Entry COC(=O)c1cc(/C=C/c2ccccc2)ccc1NC(=O)c1ccccc1 , activity at 10 µM reported as 73

Entry COC(=O)c1ccc(C(=O)N(C)c2ccc(C(=O)Nc3ccc(/C=C/c4ccccc4F)cc3C(=O)OC)cc2)cc1 , activity at 10 µM reported as 81

Entry CC(=O)N(c1ccc(C(=O)O)cc1)c1ccc(C(=O)Nc2ccc(/C=C/c3ccccc3F)cc2C(=O)O)cc1 , activity at 10 µM reported as 78

Entry COC(=O)c1ccc(N(C(C)=O)c2ccc(C(=O)Nc3ccc(/C=C/c4ccc(OC)cc4)cc3C(=O)O)cc2)cc1 , activity at 10 µM reported as 93

Entry COC(=O)c1ccc(N(C(C)=O)c2ccc(C(=O)Nc3ccc(/C=C/c4ccc(S(=O)(=O)O)cc4)cc3C(=O)OC)cc2)cc1 , activity at 10 µM reported as 171

---

Quick reference for activity at 10 µM among some molecules
target.or.system: complete β-kinase domain of the human insulin receptor (CKD) (Homo sapiens, UniProt P06213)
Construct: The complete β-kinase domain of the human insulin receptor (CKD); made in house
measurement.notes: 32P-CKD autophosphorylation assay
Type: biochemical
reported.conditions: 10 min; compound at 10 μM; phosphorylation of CKD expressed as % of the vehicle level; read-out: Activity (% vs. control)
Unit % implied. Number only.

Entry O=C(O)COc1cc(OCC(=O)O)cc(C(=O)Nc2ccc(/C=C/c3ccccc3)cc2C(=O)O)c1 , activity at 10 µM reported as 94

Entry COc1cc(C(=O)Nc2ccc(/C=C/c3ccccc3)cc2C(=O)O)cc(OC)c1OC , activity at 10 µM reported as 107

Entry COc1cccc(C(=O)Nc2ccc(/C=C/c3ccccc3)cc2CC(=O)O)c1 , activity at 10 µM reported as 117

Entry CC(=O)N(c1ccc(/C=C/c2ccc(OC(C)(C)C)c(C(=O)O)c2)cc1)c1ccc(N(C(C)=O)c2ccc(C(=O)O)cc2)cc1 , activity at 10 µM reported as 105

Entry O=C(Nc1ccc(/C=C/c2ccccc2)c(C(=O)O)c1)c1ccccc1 , activity at 10 µM reported as 105

Entry COc1ccc(/C=C/c2ccc(NC(=O)c3ccc(N(C(C)=O)c4ccc(C(=O)O)cc4)cc3)c(C(=O)O)c2)cc1 , activity at 10 µM reported as 121

Entry O=C(O)c1ccc(COc2cc(OCc3ccc(C(=O)O)cc3)cc(C(=O)Nc3ccc(/C=C/c4ccccc4)cc3C(=O)O)c2)cc1 , activity at 10 µM reported as 80

This collection of values is drawn from patent US6479548B2.
